// provenance: paper PMC10746543

Target: CDK2–cyclin A (Homo sapiens, UniProt P24941)
Construct: purchased Thermo Fisher
Test: Lanthascreen kinase binding assay, CDK2
Conditions: Supplementary Table 2; read-out: Lanthascreen IC50 [nM] CDK2
Protocol: Lanthascreen experiments were performed using commercially available reagents (Thermo Fisher) and according to the manufacturer’s instructions.
Examples of compounds with documented IC50 follow.

compound	comparisonSign	IC50, nM
Cc1cc2nc(CNc3nc(N4CCN(C)CC4)nc4c(Br)cnn34)[nH]c2cc1C [DS73, reference compound]	=	6120
COc1cc2nc(CN3CCc4sccc4C3)[nH]c(=O)c2cc1OC [Z12]	>	10000
Cn1cc(-n2cnc3c(NCc4ccc(-c5ccccn5)cc4)nc(N4CCOCC4)nc32)cn1 [DS21]	>	10000
CC[C@H](CO)Nc1nc(NCc2nc3cc(Cl)c(Cl)cc3[nH]2)c2ncn(C(C)C)c2n1 [DS17]	=	10300
